Target: T1, human GIP receptor (human, UniProt P48546 22-466)
T1 sequence (looked up): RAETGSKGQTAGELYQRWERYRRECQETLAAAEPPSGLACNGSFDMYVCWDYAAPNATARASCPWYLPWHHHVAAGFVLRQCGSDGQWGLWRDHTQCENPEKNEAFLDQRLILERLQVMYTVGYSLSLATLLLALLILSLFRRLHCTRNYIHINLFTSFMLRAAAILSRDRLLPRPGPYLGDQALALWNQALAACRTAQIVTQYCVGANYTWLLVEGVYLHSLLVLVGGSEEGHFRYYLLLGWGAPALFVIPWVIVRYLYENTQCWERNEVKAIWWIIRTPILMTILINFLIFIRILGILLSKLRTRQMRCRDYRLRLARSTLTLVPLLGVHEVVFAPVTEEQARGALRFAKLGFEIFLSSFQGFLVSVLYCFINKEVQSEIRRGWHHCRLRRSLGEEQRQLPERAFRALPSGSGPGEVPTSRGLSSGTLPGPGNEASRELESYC
Assay: cell-based or functional assay
Starred links: 1 amine or outer side, 2 acyl side, 3 side chain; linkers in the order of their positions; H or OH if unused. Non-standard residues stand in square brackets, D forms with d. Groups on a side chain read outwards from the residue. *: point of attachment. C20 diacid = O=C(O)CCCCCCCCCCCCCCCCCCC(=O)*; γGlu = O=C(O)[C@H](CCC(=O)[*:2])N[*:1]; Aib = CC(C)(N)C(=O)O
With a cut-off of 0.01 nM, any EC50, hGIP-R level of cAMP (HEK293 cells expressing human GIP R) strictly below it is called Condition met; any EC50, hGIP-R level of cAMP (HEK293 cells expressing human GIP R) meeting it or above is called Condition not met.

Worked examples, 4 binders total:
INSERT INTO assay_data (binder, label_value) VALUES
  ('H-Y[Aib]EGTFISDYSIELDKK([Peg3-Peg3-γGlu-C20 diacid])HQQDFVNWLLAQGPSSGAPPPS-NH2 [Compound 9]', 'Condition met'),
  ('YXEGTFISDYSIELDKIAAQDFIEWLLAGPSSGAPPPSK (D-Ala at 2; Lys 39 side chain acylated: K((19-Carboxy-nonadecanoyl)-[(Piperazine-1-yl)-acetyl]-Peg3-Peg3); C-terminal amide (-NH2)) [Compound 37]', 'Condition not met'),
  ('H-Y[Aib]EGTFISDYSIELDKIHQQDFVNWLLAQGPSSGAPPPSK([Peg3-Peg3-γGlu-C20 diacid])-NH2 [Compound 4]', 'Condition not met'),
  ('H-Y[Aib]EGTFISDYSIELEKIAQRAFVEWLLAQGPSSGAPPPSK([Peg3-Peg3-γGlu-C20 diacid])-NH2 [Compound 13]', 'Condition not met');

Is it true that EC50, hGIP-R level of cAMP (HEK293 cells expressing human GIP R) reported for YAEGTFISDYSIELDKKAQRAFIEWLLAQGPSSGAPPPS (Aib at 2; Lys 17 side chain acylated: K((19-Carboxy-nonadecanoyl)-[(Piperazine-1-yl)-acetyl]-Peg3-Peg3); C-terminal amide (-NH2)) [Compound 19] is less than 0.01 nM?
Condition met
